Items are presented alongside their recorded MFI.
Target: T1, human IL-23 (IL-23-His-Biotin) (human, UniProt Q9NPF7 20-189; P29460 23-328, biotin label, site not stated)
T1 construct: Akesobio lot 20161209; His-tagged and biotinylated
T1 sequence (looked up) 1: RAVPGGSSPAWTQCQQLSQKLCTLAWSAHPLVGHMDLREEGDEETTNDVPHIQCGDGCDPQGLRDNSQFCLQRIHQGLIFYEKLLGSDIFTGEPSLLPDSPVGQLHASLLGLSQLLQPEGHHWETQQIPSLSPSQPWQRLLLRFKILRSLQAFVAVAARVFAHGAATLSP
T1 sequence (looked up) 2: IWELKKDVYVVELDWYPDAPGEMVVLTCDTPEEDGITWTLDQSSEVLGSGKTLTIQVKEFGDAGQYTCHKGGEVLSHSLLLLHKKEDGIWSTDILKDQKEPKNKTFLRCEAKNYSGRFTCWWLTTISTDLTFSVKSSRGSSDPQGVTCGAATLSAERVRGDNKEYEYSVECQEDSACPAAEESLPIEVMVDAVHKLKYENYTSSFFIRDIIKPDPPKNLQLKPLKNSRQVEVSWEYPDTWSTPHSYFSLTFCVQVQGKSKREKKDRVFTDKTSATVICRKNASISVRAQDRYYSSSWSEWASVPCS
Assay: FACS competition, IL-23-His-Biotin 2 µg/mL on 293T-IL-12Rβ1&IL-23R cells; antibody 3.33 µg/mL
Outcome measure: MFI (MFI)

Binder | Reported result
ustekinumab (antibody, V domains shown) VH: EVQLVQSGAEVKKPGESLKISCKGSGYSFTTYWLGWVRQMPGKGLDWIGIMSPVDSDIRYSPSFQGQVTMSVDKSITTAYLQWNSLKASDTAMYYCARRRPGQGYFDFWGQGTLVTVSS VL: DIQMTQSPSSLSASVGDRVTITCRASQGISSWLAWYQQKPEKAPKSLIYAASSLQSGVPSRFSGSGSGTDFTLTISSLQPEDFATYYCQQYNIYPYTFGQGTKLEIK | 13.8
H5L14 (antibody, human IgG1, kappa, V domains shown, human IgG1 / kappa constant regions; also called humanized antibody H5L14) VH: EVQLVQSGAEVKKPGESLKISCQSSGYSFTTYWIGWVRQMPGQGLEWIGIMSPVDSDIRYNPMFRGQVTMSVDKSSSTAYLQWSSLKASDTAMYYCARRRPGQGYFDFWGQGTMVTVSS VL: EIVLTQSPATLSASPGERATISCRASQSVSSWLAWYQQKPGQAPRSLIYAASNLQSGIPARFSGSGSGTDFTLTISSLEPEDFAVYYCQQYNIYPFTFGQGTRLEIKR | 23.6
H5L10 (antibody, human IgG1, kappa, V domains shown, human IgG1 / kappa constant regions; also called humanized antibody H5L10) VH: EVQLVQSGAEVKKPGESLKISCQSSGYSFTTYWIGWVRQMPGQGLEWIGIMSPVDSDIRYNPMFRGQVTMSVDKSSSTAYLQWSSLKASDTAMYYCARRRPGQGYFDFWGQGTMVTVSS VL: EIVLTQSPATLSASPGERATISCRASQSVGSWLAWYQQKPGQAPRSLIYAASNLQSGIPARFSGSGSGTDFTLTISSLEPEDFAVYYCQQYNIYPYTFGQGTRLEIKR | 15.7
